tested on: NCI-H460 lung; assay: NCI tumour cell line growth inhibition, 48 h
measurementLabel: TGI

Please review the entries below; each comes with its answer.
molecule | result
Cc1ccc(-c2nc(N/N=C/C=C/c3ccccc3)c3ccccc3n2)cc1 | > 100 µM
Fc1ccc(N2C(=S)SC(=Nc3ccccc3)C2=Nc2ccccc2)cc1 | > 100 µM
N#Cc1ccc(C=NC23CC4CC(CC(C4)C2)C3)cc1 | > 100 µM
O=C(/C=C/c1ccccc1)Oc1ccc(C(=O)/C=C/c2ccc(Cl)cc2)cc1 | > 100 µM

TGI reading for `c1cc2nnc1SCCCSc1ccc(nn1)SCCCS2` : > 100 µM

TGI reading for `COc1ccc(/C=C(\C#N)n2nnc3c(F)cccc32)cc1` : > 100 µM

TGI reading for `CC(=O)OCCOCNC(=S)N/N=C/c1cc(Br)cs1` : > 100 µM

* * *

tested on: HS 578T breast; test: NCI tumour cell line growth inhibition, 48 h
Below: a set of entries, each annotated with reported TGI.

Please review the entries below; each comes with its answer.
compound | targetUnderTest | measurementLabel | result
O=C(O)Cc1cccnc1 | HS 578T breast | TGI | > 100 µM
C[N+](C)(C)c1ncnc2c1ncn2C1CC(O)C(CO)O1 (stereo not given) | HS 578T breast | TGI | > 100 µM
COC(=O)c1cncc(/C=C/c2c(C)cc(O)cc2C)c1 | HS 578T breast | TGI | > 25 µM
N#Cc1nc(-c2ccco2)oc1N | HS 578T breast | TGI | > 10 µM

Moving on to another compound below.
TGI reading for `CCOC(=O)/C=C/CCO[Si](C)(C)C(C)(C)C` : > 100 µM

* * *

Below: a set of entries, each annotated with reported TGI.
system: SK-OV-3 ovarian; assay: NCI tumour cell line growth inhibition, 48 h
Where a SMILES comes first, the peptide text is derived from it. The star is where a group is joined. Palmitoyl = CCCCCCCCCCCCCCCC(=O)*

compound | targetUnderTest | measurementLabel | result
N#CC(c1ccccn1)c1nc2ccccc2[nH]1 (stereo not drawn) | SK-OV-3 ovarian | TGI | > 100 µM
N#CCN1CCn2c1nsc2=S | SK-OV-3 ovarian | TGI | > 100 µM
COc1ccc(CCC2c3cc(OC)c(OC)cc3CCN2C)cc1OC (stereo not drawn) | SK-OV-3 ovarian | TGI | > 100 µM
CC(C)(C)C1=CC(C)(n2[nH]c(=O)n(-c3ccccc3)c2=O)C=C(C(C)(C)C)C1=O | SK-OV-3 ovarian | TGI | > 100 µM
COc1cc2c(c(O)c1OC)C(=O)[C@@H]1CCC(=O)N1C2 | SK-OV-3 ovarian | TGI | > 100 µM
CON(C)c1nc(N(C)OC)nc(N(C)OC)n1 | SK-OV-3 ovarian | TGI | > 10 µM
[O-]c1c2cc(-[n+]3c(-c4ccccc4)cc(-c4ccccc4)cc3-c3ccccc3)cc1COCCOCCOCCOCCOC2 | SK-OV-3 ovarian | TGI | > 100 µM
CCOC(=O)CNC(=O)C(CSC(=O)N(O)c1ccc(Cl)cc1)NC(=O)CCC(N)C(=O)OCC (stereo not drawn) | SK-OV-3 ovarian | TGI | > 50 µM
CCC1OC2C(CC=C(C)C)=C3OC(C)(O)C(C)(CC)C(OC(C)=O)C3=C3OC(=O)C=C1C32 (stereo not drawn) | SK-OV-3 ovarian | TGI | > 100 µM
O=[N+]([O-])c1cccc2nc3ccccc3c(NCCCNc3c4ccccc4nc4cccc([N+](=O)[O-])c34)c12 | SK-OV-3 ovarian | TGI | 1.59 µM

The compound `COc1ccc(/C(Br)=C2\OC(=O)c3ccccc32)cc1` , tested on SK-OV-3 ovarian, showed TGI of > 10 µM

The compound CC(N)Cc1ccc(Cl)c(Cl)c1 (stereo not drawn) , tested on SK-OV-3 ovarian, showed TGI of > 100 µM

The compound `CC1(C)CC[C@]2(C)CC[C@]3(C)C(=CC[C@@H]4[C@@]5(C)CCC(=O)C(C)(C)[C@@H]5[C@H](O)C[C@]43C)[C@@H]2C1` , tested on SK-OV-3 ovarian, showed TGI of 31.7 µM

The compound COC(=O)[C@@]1(C(C)CC(=O)O)CCCCC1=O (stereo partly drawn) , tested on SK-OV-3 ovarian, showed TGI of > 100 µM

The compound `Cc1ccc(NC(=O)c2cc(S(=O)(=O)Nc3n[nH]c(=O)[nH]3)c(SSc3cc(Cl)c(C(=O)Nc4ccc(C)cc4)cc3S(=O)(=O)Nc3n[nH]c(=O)[nH]3)cc2Cl)cc1` , tested on SK-OV-3 ovarian, showed TGI of > 100 µM

The compound `NNC(=O)c1c(-c2cccnc2)cnc2ccccc12` , tested on SK-OV-3 ovarian, showed TGI of > 100 µM

The compound CC1(C)CC(=O)C2=C(C1)OC(N)=C(c1nc(-c3ccccc3)cs1)C2c1ccc(Br)cc1 (stereo not drawn) , tested on SK-OV-3 ovarian, showed TGI of > 150 µg/mL

The compound `O=c1[nH]c(=S)nc2nc3c4ccc[nH]c4c4ccccc4c3nc12` , tested on SK-OV-3 ovarian, showed TGI of > 100 µM

The compound CCCCCCCCCCCCCCCC(=O)N1CCCC1C(=O)NCC(=O)NC(Cc1ccccc1)C(=O)NC(C)C(=O)NC(CO)C(=O)NC(Cc1ccc(O)cc1)C(=O)NC(CCCCN)C(=O)NC(CC(C)C)C(=O)NC(CCCN=C(N)N)C(=O)N1CCCC1C(=O)NCC(N)=O (stereo not drawn) (Palmitoyl-PGFASYKLRPG-NH2; configuration not given here) , tested on SK-OV-3 ovarian, showed TGI of 28.7 µM

The compound `CCc1cccc(C)c1NC(=O)c1sc2nc3c(cc2c1N)C(=O)CCC3` , tested on SK-OV-3 ovarian, showed TGI of > 100 µM

The compound Cc1ccccc1NC(=O)C(=O)C(C#N)c1ccccc1C (stereo not drawn) , tested on SK-OV-3 ovarian, showed TGI of > 100 µM

The compound `COc1ccc(/C=C(\C#N)n2nnc3c(F)cccc32)cc1` , tested on SK-OV-3 ovarian, showed TGI of > 90 µM

The compound `CCOC(=O)NNC(=O)NCc1cccc(CNC(=O)NNC(=O)OCC)c1` , tested on SK-OV-3 ovarian, showed TGI of > 100 µM

The compound `O=[N+]([O-])c1ccc(N2CCOCC2)c2c1no[n+]2[O-]` , tested on SK-OV-3 ovarian, showed TGI of 4.68 µM

Just for reference, PubChem BioAssay (NCI) is where these values come from.
